- System: Wolbachia pipientis
- measurement.protocol: Anti-Wolbachia Cell-Based Screen
- Format: functional
- Set-up: scale not given: in the data most compounds retested in dose-response had high values
- condition.description: 5 µM
Out of some 48,000 compounds screened, about 13,000 (27%) showed an effect of 50% or more. Some of the results follow.
observation.type: Percent Effect (%)
Could you give me the number in %? Just the number is fine.

QUERY: Which Percent Effect is listed for CC(=O)c1cccc(S(=O)(=O)N2CSCC2C(=O)NCC(F)(F)F)c1 (stereo unspecified) ?
RESULT: 8.95

QUERY: Which Percent Effect is listed for `Oc1c(F)cc(CNc2cccc(-c3nnc[nH]3)c2)cc1F` ?
RESULT: 3.752

QUERY: Which Percent Effect is listed for COc1cccc(N2CCC(CNC(=O)CN3CSCC3=O)C2)c1 (stereo unspecified) ?
RESULT: -9.493

QUERY: Which Percent Effect is listed for `Cc1nc(S(=O)(=O)CCn2cccn2)n(C2CCCC2)c1C` ?
RESULT: -3.165

QUERY: Which Percent Effect is listed for CSCCCNC(=O)C1CCC(=O)N(C2CCCC2)C1 (stereo unspecified) ?
RESULT: -0.8236

QUERY: Which Percent Effect is listed for `CN(C(=O)Cc1ccc(NC(=O)NC2CC2)cc1)c1ccccc1` ?
RESULT: 5.932

---

- Tested on: Wolbachia pipientis
- measurement.protocol: Anti-Wolbachia Cell-Based Screen
- Format: functional
- Design: scale not given: in the data most compounds retested in dose-response had high values
- condition.description: 5 µM
In all, about 48,000 compounds went through this assay and about 13,000 (27%) showed an effect of 50% or more. The list shows a part of the results.
Exercise: for every item that follows, state its recorded Percent Effect.
Could you give me the number in %? Just the number is fine.

QUERY: Which Percent Effect is listed for Cc1nc(CN2CCOC3(CCCN(c4nccs4)C3)C2)cs1 (stereo not drawn) ?
RESULT: -8.721

QUERY: Which Percent Effect is listed for Cc1ccc(CN2CCn3c(CN4CCN(C)CC4)cnc3C2C)s1.O=C(O)C(F)(F)F.O=C(O)C(F)(F)F.O=C(O)C(F)(F)F (stereo not drawn) ?
RESULT: 98.84

QUERY: Which Percent Effect is listed for CC1c2ncc(CN3CCN(C)CC3)n2CCN1Cc1ccsc1.O=C(O)C(F)(F)F.O=C(O)C(F)(F)F.O=C(O)C(F)(F)F (stereo not drawn) ?
RESULT: 104.7

QUERY: Which Percent Effect is listed for `Cc1nc(CN2CCN(Cc3ccoc3)Cc3cccnc32)cs1.O=C(O)C(F)(F)F.O=C(O)C(F)(F)F.O=C(O)C(F)(F)F` ?
RESULT: 3.214

QUERY: Which Percent Effect is listed for O=C(O)C(F)(F)F.O=C(O)C(F)(F)F.c1coc(CN2CCCC3(COCCN(Cc4c[nH]nn4)C3)C2)c1 (stereo not drawn) ?
RESULT: -3.131

QUERY: Which Percent Effect is listed for `Cc1nc(CN2CCC23CCN(Cc2ccoc2)CC3)cs1` ?
RESULT: 97.06

QUERY: Which Percent Effect is listed for CC1c2ncc(CN3CCN(C)CC3)n2CCN1CC1CC1.O=C(O)C(F)(F)F.O=C(O)C(F)(F)F.O=C(O)C(F)(F)F (stereo not drawn) ?
RESULT: -5.269

QUERY: Which Percent Effect is listed for `Cc1nc(CN2CCC3(C2)CN(Cc2ccco2)C3)cs1` ?
RESULT: 129

---

- Tested on: Wolbachia pipientis
- measurement.protocol: Anti-Wolbachia Cell-Based Screen
- Assay type: functional
- Design: scale not given: in the data most compounds retested in dose-response had high values
- condition.description: 5 µM
The campaign covered roughly 48,000 compounds. About 13,000 (27%) showed an effect of 50% or more. This is one part of the list.
observation.type: Percent Effect (%)
Could you give me the number in %? Just the number is fine.

QUERY: Could you share what Percent Effect was measured for `CCN(CC)Cc1cnc2n1CCN(Cc1c(C)noc1C)CC2.O=C(O)C(F)(F)F.O=C(O)C(F)(F)F` , tested on Wolbachia pipientis?
RESULT: -10.46

QUERY: Could you share what Percent Effect was measured for `CCN(C)S(=O)(=O)N(Cc1cscn1)c1ccccc1` , tested on Wolbachia pipientis?
RESULT: -21.13

QUERY: Could you share what Percent Effect was measured for `Cc1cccc(CNC2(CCO)CCOCC2)c1C` , tested on Wolbachia pipientis?
RESULT: -7.231

QUERY: Could you share what Percent Effect was measured for `COC(=O)NCC(=O)N(C)Cc1csc(-c2cccs2)n1` , tested on Wolbachia pipientis?
RESULT: -9.296

QUERY: Could you share what Percent Effect was measured for CCC(=O)N1CCCC1c1nc(N(C)C)ncc1-c1ccc(Cl)cc1 (stereo not drawn) , tested on Wolbachia pipientis?
RESULT: 84.51

QUERY: Could you share what Percent Effect was measured for `Cc1nc(CC(=O)N2CCC[C@H]2c2nc(C(C)C)no2)cs1` , tested on Wolbachia pipientis?
RESULT: -12.82

QUERY: Could you share what Percent Effect was measured for Cn1cc(C(C)(O)CNC(=O)c2cc(Br)cn2C)cn1 (stereo not drawn) , tested on Wolbachia pipientis?
RESULT: 0.5421

QUERY: Could you share what Percent Effect was measured for `Cc1nnc(NCC2(c3ccccc3)CC2)c(C#N)c1C` , tested on Wolbachia pipientis?
RESULT: 14.48

QUERY: Could you share what Percent Effect was measured for `CC(C)N1CCC(c2ccnc3c(C(=O)N4CCOCC4)ncn23)CC1` , tested on Wolbachia pipientis?
RESULT: -16.45

QUERY: Could you share what Percent Effect was measured for `Cc1cccc(N(CC(=O)N2CCCCC2)Cc2nc(=O)[nH][nH]2)c1` , tested on Wolbachia pipientis?
RESULT: -2.957

QUERY: Could you share what Percent Effect was measured for COc1ccc(CN(C)CC(=O)NC2(C)CCS(=O)(=O)C2)cc1F (stereo not drawn) , tested on Wolbachia pipientis?
RESULT: -5.934

QUERY: Could you share what Percent Effect was measured for `Cn1cccc1C(=O)N[C@@H]1CN(Cc2cccs2)[C@@H]2COC[C@@H]21.O=C(O)C(F)(F)F` , tested on Wolbachia pipientis?
RESULT: -0.8834

QUERY: Could you share what Percent Effect was measured for CC(c1cccnc1)N(C)Cc1csc(-c2ccccn2)n1 (stereo not drawn) , tested on Wolbachia pipientis?
RESULT: 4.015

QUERY: Could you share what Percent Effect was measured for CC(C)C(=O)N1CCCC1c1nc(N(C)C)ncc1-c1ccc(Cl)cc1 (stereo not drawn) , tested on Wolbachia pipientis?
RESULT: 126.5

QUERY: Could you share what Percent Effect was measured for `CC(C)c1nnc(NCCS(C)(=O)=O)s1` , tested on Wolbachia pipientis?
RESULT: -6.765

QUERY: Could you share what Percent Effect was measured for `Cc1ccc(CN2CCn3cc(CN(C)Cc4ccco4)nc3C2)o1.O=C(O)C(F)(F)F.O=C(O)C(F)(F)F` , tested on Wolbachia pipientis?
RESULT: 18.64

QUERY: Could you share what Percent Effect was measured for CC(C)Sc1ccc(C(C)Nc2nc3c(cnn3C)c(=O)[nH]2)cc1 (stereo not drawn) , tested on Wolbachia pipientis?
RESULT: -4.166

QUERY: Could you share what Percent Effect was measured for `O=C(CCc1ccsc1)NCc1ccnc(OC2CCOCC2)c1` , tested on Wolbachia pipientis?
RESULT: -13.16

QUERY: Could you share what Percent Effect was measured for `O=C(CCn1cncn1)Nc1ccc(F)cc1OCC1CC1` , tested on Wolbachia pipientis?
RESULT: -2.529

QUERY: Could you share what Percent Effect was measured for `CC(=O)N[C@@H]1CN(S(=O)(=O)Cc2ccccc2)C[C@H]1C(C)C` , tested on Wolbachia pipientis?
RESULT: 4.897

QUERY: Could you share what Percent Effect was measured for `Cc1nc(CN(C)Cc2nc(-c3sccc3C)oc2C)no1` , tested on Wolbachia pipientis?
RESULT: -9.354

QUERY: Could you share what Percent Effect was measured for O=C(C1CCCS1)N1CCOc2cccc(F)c21 (stereo not drawn) , tested on Wolbachia pipientis?
RESULT: -0.5094

QUERY: Could you share what Percent Effect was measured for CN(C)c1ccc(C(=O)N2CCCC2c2ccc(Cl)cc2)cc1 (stereo not drawn) , tested on Wolbachia pipientis?
RESULT: 5.929
